Entries and their pKd
target: T1, soluble human FcRn (shFcRn) (human, UniProt P55899 24-297; P61769 21-119); assay: SPR pH 6
T1 construct: Biotinylated for the ELISA, amine-coupled to a CM5 chip for SPR; also called biotinylated shFcRn
T1 sequence (P55899 24-297 limits assumed, chain 1 of 2): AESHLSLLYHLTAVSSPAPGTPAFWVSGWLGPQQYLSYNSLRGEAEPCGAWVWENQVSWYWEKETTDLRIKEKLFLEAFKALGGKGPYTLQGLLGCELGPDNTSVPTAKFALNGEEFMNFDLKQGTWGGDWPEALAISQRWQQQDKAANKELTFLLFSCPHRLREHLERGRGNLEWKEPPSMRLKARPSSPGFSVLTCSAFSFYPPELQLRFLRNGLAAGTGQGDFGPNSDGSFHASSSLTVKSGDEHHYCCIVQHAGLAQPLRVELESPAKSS
T1 sequence (P61769 21-119 limits assumed, chain 2 of 2): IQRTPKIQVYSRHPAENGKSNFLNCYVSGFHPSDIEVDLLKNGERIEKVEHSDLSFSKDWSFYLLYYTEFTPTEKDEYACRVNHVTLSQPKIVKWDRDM
pKd: −log10 of the molar value. Bridge positions count the residues as written; N and C are the ends. Square brackets hold non-standard residues; d marks the D form. Ends that are not written are not given here. Pen = CC(C)(S)[C@H](N)C(=O)O

- binder: "QRFCTGHFXGLYPCNGP (Pen 4; Aib 9; disulfide 4-14; C-terminal amide) [Peptide No. 54]"
  pKd: 5.28
- binder: "QRF[Pen]TGHFG[dH]LYPCNGP-NH2 (disulfide 4-14; N-terminus assumed; SMILES CC(C)C[C@@H]1NC(=O)[C@@H](Cc2c[nH]cn2)NC(=O)CNC(=O)[C@H](Cc2ccccc2)NC(=O)[C@H](Cc2c[nH]cn2)NC(=O)CNC(=O)[C@H]([C@@H](C)O)NC(=O)[C@@H](NC(=O)[C@H](Cc2ccccc2)NC(=O)[C@H](CCCNC(=N)N)NC(=O)[C@@H](N)CCC(N)=O)C(C)(C)SSC[C@@H](C(=O)N[C@@H](CC(N)=O)C(=O)NCC(=O)N2CCC[C@H]2C(N)=O)NC(=O)[C@@H]2CCCN2C(=O)[C@H](Cc2ccc(O)cc2)NC1=O) [Peptide No. 42]"
  pKd: 5.70
- binder: "QRF[Pen]TGHF[dA][dA]LYPCNGP-NH2 (disulfide 4-14; N-terminus assumed; SMILES CC(C)C[C@@H]1NC(=O)[C@@H](C)NC(=O)[C@@H](C)NC(=O)[C@H](Cc2ccccc2)NC(=O)[C@H](Cc2c[nH]cn2)NC(=O)CNC(=O)[C@H]([C@@H](C)O)NC(=O)[C@@H](NC(=O)[C@H](Cc2ccccc2)NC(=O)[C@H](CCCNC(=N)N)NC(=O)[C@@H](N)CCC(N)=O)C(C)(C)SSC[C@@H](C(=O)N[C@@H](CC(N)=O)C(=O)NCC(=O)N2CCC[C@H]2C(N)=O)NC(=O)[C@@H]2CCCN2C(=O)[C@H](Cc2ccc(O)cc2)NC1=O) [Peptide No. 148]"
  pKd: 6.35
- binder: "QRFCTGHFGXLYPCNGP (Pen 4; Aib (aminoisobutyric acid) 10; disulfide 4-14; C-terminal amide) [Peptide No. 46]"
  pKd: 6.32
- binder: "QRF[Pen]TGHFG[dR]LYPCNGP-NH2 (disulfide 4-14; N-terminus assumed; SMILES CC(C)C[C@@H]1NC(=O)[C@@H](CCCNC(=N)N)NC(=O)CNC(=O)[C@H](Cc2ccccc2)NC(=O)[C@H](Cc2c[nH]cn2)NC(=O)CNC(=O)[C@H]([C@@H](C)O)NC(=O)[C@@H](NC(=O)[C@H](Cc2ccccc2)NC(=O)[C@H](CCCNC(=N)N)NC(=O)[C@@H](N)CCC(N)=O)C(C)(C)SSC[C@@H](C(=O)N[C@@H](CC(N)=O)C(=O)NCC(=O)N2CCC[C@H]2C(N)=O)NC(=O)[C@@H]2CCCN2C(=O)[C@H](Cc2ccc(O)cc2)NC1=O) [Peptide No. 41]"
  pKd: 6.08

Each recorded value in this set is attributed to patent US20110059889A1.
